Recorded values, source the supplement of paper PMC11061612.

system: NCI-H2591 (Mesothelioma); assay: Bliss excess, mean over the matrix (fraction); higher = more synergy;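 further: after 72 h of two-drug dosing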
quantity kind: Bliss excess
In your answer, state the number alone without any accompanying words.

molecule	test target	Bliss excess
COc1nnc2ccc(N3CCC(c4ccc(OCCN5CCN(C)C(=O)[C@H]5C)cc4)CC3)nn12 [AZD5153] + Cc1c2c(nn1C)CSCc1cc(n(C)n1)CSc1cc(c3ccccc3c1)OCCCc1c(C(=O)O)n(C)c3c-2c(Cl)ccc13 [AZD5991] (first compound max 1 µM, 7x7, partner max 1 µM)	NCI-H2591 (Mesothelioma)	-0.0657
COc1cc2ncnc(Nc3ccc(F)c(Cl)c3)c2cc1OCCCN1CCOCC1 [Gefitinib] + CC(C)n1c(=O)n(C)c2cnc3cc(F)c(-c4ccc(OCCCN5CCCCC5)nc4)cc3c21 [AZD1390] (first compound max 10 µM, 7x7, partner max 0.3 µM)	NCI-H2591 (Mesothelioma)	-0.0801
NC1(C(=O)N[C@@H](CCO)c2ccc(Cl)cc2)CCN(c2ncnc3[nH]ccc23)CC1 [Capivasertib] + C[C@@H]1COCCN1C2=NC(=NC(=C2)C3(CC3)[S@](=N)(=O)C)C4=C5C=CNC5=NC=C4 [AZD6738] (first compound max 10 µM, 7x7, partner max 10 µM)	NCI-H2591 (Mesothelioma)	0.0021
Cc1c2c(nn1C)CSCc1cc(n(C)n1)CSc1cc(c3ccccc3c1)OCCCc1c(C(=O)O)n(C)c3c-2c(Cl)ccc13 [AZD5991] + C=CCn1c(=O)c2cnc(Nc3ccc(N4CCN(C)CC4)cc3)nc2n1-c1cccc(C(C)(C)O)n1 [AZD1775] (first compound max 1 µM, partner max 1 µM)	NCI-H2591 (Mesothelioma)	0.0396
CC1(C)CCC(CN2CCN(c3ccc(C(=O)NS(=O)(=O)c4ccc(NCC5CCOCC5)c([N+](=O)[O-])c4)c(Oc4cnc5[nH]ccc5c4)c3)CC2)=C(c2ccc(Cl)cc2)C1 [Venetoclax] + C[C@@H]1COCCN1C2=NC(=NC(=C2)C3(CC3)[S@](=N)(=O)C)C4=C5C=CNC5=NC=C4 [AZD6738] (first compound max 1 µM, 7x7, partner max 10 µM)	NCI-H2591 (Mesothelioma)	-0.0595
Cc1c2c(nn1C)CSCc1cc(n(C)n1)CSc1cc(c3ccccc3c1)OCCCc1c(C(=O)O)n(C)c3c-2c(Cl)ccc13 [AZD5991] + C[C@@H]1COCCN1C2=NC(=NC(=C2)C3(CC3)[S@](=N)(=O)C)C4=C5C=CNC5=NC=C4 [AZD6738] (first compound max 1 µM, 7x7, partner max 10 µM)	NCI-H2591 (Mesothelioma)	0.023

Kindly consider the entry below.
Ask: State the recorded Bliss excess for this entry: CN(C)CCCOc1ccc(-c2ccc3ncc4c(c3c2)n(C2CCOCC2)c(=O)n4C)cn1 [AZD0156] + C=CCn1c(=O)c2cnc(Nc3ccc(N4CCN(C)CC4)cc3)nc2n1-c1cccc(C(C)(C)O)n1 [AZD1775] (first compound max 1 µM, partner max 1 µM)
Reply: -0.0306

---

test system: MDST8 (Colorectal Carcinoma); experiment: combination Emax (second highest fraction inhibited in the dose matrix, 72 h); higher = more inhibition; extreme values may be limits of the assay
quantity kind: combination Emax
In your answer, state the number alone without any accompanying words.

Some compounds with recorded combination Emax:
compound	combination Emax
C[C@@H]1COCCN1c1cc(C2([S@](C)(=N)=O)CC2)nc(-c2ccnc3[nH]ccc23)n1 [AZD6738] + O=C(c1cc(Cc2n[nH]c(=O)c3ccccc23)ccc1F)N1CCN(C(=O)C2CC2)CC1 [Olaparib] (first compound max 10 µM, 7x7, partner max 10 µM)	0.677
COc1cccc2c1C(=O)c1c(O)c3c(c(O)c1C2=O)C[C@@](O)(C(=O)CO)C[C@@H]3O[C@H]1C[C@H](N)[C@H](O)[C@H](C)O1 [Doxorubicin] + Cc1cc2ncnn2cc1Nc1ncc2c(n1)n(C1CCOCC1)c(=O)n2C [AZD7648] (first compound max 1 µM, 7x7, partner max 10 µM)	0.965
Cn1cnc2c(F)c(Nc3ccc(Br)cc3Cl)c(C(=O)NOCCO)cc21 [Selumetinib] + C[C@@H]1COCCN1C2=NC(=NC(=C2)C3(CC3)[S@](=N)(=O)C)C4=C5C=CNC5=NC=C4 [AZD6738] (first compound max 10 µM, 7x7, partner max 10 µM)	0.784
CC1(C)CCC(CN2CCN(c3ccc(C(=O)NS(=O)(=O)c4ccc(NCC5CCOCC5)c([N+](=O)[O-])c4)c(Oc4cnc5[nH]ccc5c4)c3)CC2)=C(c2ccc(Cl)cc2)C1 [Venetoclax] + COc1cc(Nc2ncc3c(n2)-c2ccc(Cl)cc2C(c2c(F)cccc2OC)=NC3)ccc1C(=O)O [Alisertib] (first compound max 1 µM, 7x7, partner max 10 µM)	0.329
Cc1cc2ncnn2cc1Nc1ncc2c(n1)n(C1CCOCC1)c(=O)n2C [AZD7648] + CCN(CCO)CCCOc1ccc2c(Nc3cc(CC(=O)Nc4cccc(F)c4)[nH]n3)ncnc2c1 [AZD2811] (first compound max 10 µM, 7x7, partner max 1 µM)	0.485
CN(C)CCCOc1ccc(-c2ccc3ncc4c(c3c2)n(C2CCOCC2)c(=O)n4C)cn1 [AZD0156] + C=CCn1c(=O)c2cnc(Nc3ccc(N4CCN(C)CC4)cc3)nc2n1-c1cccc(C(C)(C)O)n1 [AZD1775] (first compound max 1 µM, partner max 1 µM)	0.416

Kindly consider the entry below.
Ask: State the recorded combination Emax for this entry: COc1nnc2ccc(N3CCC(c4ccc(OCCN5CCN(C)C(=O)[C@H]5C)cc4)CC3)nn12 [AZD5153] + CCN(CCO)CCCOc1ccc2c(Nc3cc(CC(=O)Nc4cccc(F)c4)[nH]n3)ncnc2c1 [AZD2811] (first compound max 1 µM, 7x7, partner max 1 µM)
Reply: 0.466
